Provenance of the data: ChEMBL document CHEMBL4038327

Target: Inhibitor of nuclear factor kappa-B kinase subunit beta (Homo sapiens, UniProt O14920)
Sequence (O14920 whole entry): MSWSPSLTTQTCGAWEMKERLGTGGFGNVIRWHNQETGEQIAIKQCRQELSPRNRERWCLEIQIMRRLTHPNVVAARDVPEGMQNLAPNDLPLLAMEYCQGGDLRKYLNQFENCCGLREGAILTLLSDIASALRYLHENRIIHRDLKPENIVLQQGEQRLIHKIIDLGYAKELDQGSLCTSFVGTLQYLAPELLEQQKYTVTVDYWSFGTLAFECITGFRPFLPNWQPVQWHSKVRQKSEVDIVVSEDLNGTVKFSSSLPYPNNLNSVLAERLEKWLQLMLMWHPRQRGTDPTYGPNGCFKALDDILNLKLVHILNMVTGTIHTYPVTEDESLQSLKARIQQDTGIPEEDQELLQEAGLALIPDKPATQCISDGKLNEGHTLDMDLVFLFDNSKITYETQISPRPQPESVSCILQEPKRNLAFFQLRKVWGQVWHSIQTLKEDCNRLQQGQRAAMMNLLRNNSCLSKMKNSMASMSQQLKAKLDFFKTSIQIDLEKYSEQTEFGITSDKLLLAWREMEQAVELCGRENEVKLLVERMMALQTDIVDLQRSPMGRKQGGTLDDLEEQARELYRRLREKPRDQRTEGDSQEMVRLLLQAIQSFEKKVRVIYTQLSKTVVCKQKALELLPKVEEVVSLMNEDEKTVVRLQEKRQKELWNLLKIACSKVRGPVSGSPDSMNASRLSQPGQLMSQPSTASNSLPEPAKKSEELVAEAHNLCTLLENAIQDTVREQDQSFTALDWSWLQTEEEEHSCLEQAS
Experiment: Inhibition of recombinant full length human IKKbeta expressed in baculovirus infected sf9 insect cells using biotinylated IkBalpha as substrate after 60 mins by DELFIA
pKi: −log10 of the molar value.
attributeMeasured: pKi

Prompt: Please indicate recorded pKi of `N#Cc1c[nH]c2nc(N)nc(N3CCC[C@H]3CO)c12` measured with Inhibitor of nuclear factor kappa-B kinase subunit beta (Homo sapiens, UniProt O14920).
Completion: < 4.52

Prompt: Specify pKi for `NC(=O)c1c[nH]c2nc(N)nc(N[C@H]3CC[C@H](O)CC3)c12` , system Inhibitor of nuclear factor kappa-B kinase subunit beta (Homo sapiens, UniProt O14920).
Completion: < 4.52

Prompt: Identify measured pKi obtained with Inhibitor of nuclear factor kappa-B kinase subunit beta (Homo sapiens, UniProt O14920) for `N#Cc1c[nH]c2nc(N)nc(Nc3ccc(S(N)(=O)=O)cc3)c12` .
Completion: < 4.52

Prompt: Enter measured pKi, system Inhibitor of nuclear factor kappa-B kinase subunit beta (Homo sapiens, UniProt O14920), for the compound shown: `Nc1nc(N[C@H]2CC[C@H](O)CC2)c2cc[nH]c2n1`
Completion: < 4.52

Prompt: Answer with pKi of `N#Cc1c[nH]c2nc(N)nc(NCC3CC3)c12` measured for Inhibitor of nuclear factor kappa-B kinase subunit beta (Homo sapiens, UniProt O14920).
Completion: < 4.52

Prompt: Give pKi; test system Inhibitor of nuclear factor kappa-B kinase subunit beta (Homo sapiens, UniProt O14920); compound `CS(=O)(=O)c1ccc(-c2nc(N)nc3[nH]cc(C#N)c23)cc1`
Completion: 6.52

Prompt: Give measured pKi for `N#Cc1c[nH]c2nc(N)nc(NCCO)c12` (Inhibitor of nuclear factor kappa-B kinase subunit beta (Homo sapiens, UniProt O14920)).
Completion: < 4.52

Prompt: Lab note: record pKi of `N#Cc1c[nH]c2nc(N)nc(N3CCC[C@@H]3CO)c12` tested on Inhibitor of nuclear factor kappa-B kinase subunit beta (Homo sapiens, UniProt O14920).
Completion: < 4.52

Prompt: Print Inhibitor of nuclear factor kappa-B kinase subunit beta (Homo sapiens, UniProt O14920) pKi for `N#Cc1c[nH]c2nc(N)nc(Nc3ccc(C(=O)O)cc3)c12` .
Completion: < 4.52

Prompt: Please indicate recorded pKi of `N#Cc1c[nH]c2nc(N)nc(-c3ccc(S(N)(=O)=O)cc3)c12` measured with Inhibitor of nuclear factor kappa-B kinase subunit beta (Homo sapiens, UniProt O14920).
Completion: 6.00

Prompt: Provide pKi, tested on Inhibitor of nuclear factor kappa-B kinase subunit beta (Homo sapiens, UniProt O14920), for `N#Cc1c[nH]c2nc(N)nc(Cl)c12` .
Completion: < 4.52

Prompt: Specify pKi for `N#Cc1c[nH]c2nc(N)nc(-c3ccccc3F)c12` , system Inhibitor of nuclear factor kappa-B kinase subunit beta (Homo sapiens, UniProt O14920).
Completion: < 4.52

Prompt: // fetch pKi for `N#Cc1c[nH]c2nc(N)nc(NCc3ccccc3)c12` ; system: Inhibitor of nuclear factor kappa-B kinase subunit beta (Homo sapiens, UniProt O14920)
Completion: < 4.52

Prompt: Report pKi under test system Inhibitor of nuclear factor kappa-B kinase subunit beta (Homo sapiens, UniProt O14920) for `N#Cc1c[nH]c2nc(N)nc(N3CC[C@@H](O)C3)c12` .
Completion: < 4.52

Prompt: Look up and report measured pKi (Inhibitor of nuclear factor kappa-B kinase subunit beta (Homo sapiens, UniProt O14920)) for the following compound: `N#Cc1c[nH]c2nc(N)nc(N3CCOCC3)c12`
Completion: 4.70

Prompt: State recorded pKi with Inhibitor of nuclear factor kappa-B kinase subunit beta (Homo sapiens, UniProt O14920), entry `CNS(=O)(=O)c1ccc(-c2nc(N)nc3[nH]cc(C#N)c23)cc1` , no comment.
Completion: 6.40
